- MEASUREMENT_TARGET: rat GPR40 (Rattus norvegicus)
- Sequence (Q8K3T4 whole entry): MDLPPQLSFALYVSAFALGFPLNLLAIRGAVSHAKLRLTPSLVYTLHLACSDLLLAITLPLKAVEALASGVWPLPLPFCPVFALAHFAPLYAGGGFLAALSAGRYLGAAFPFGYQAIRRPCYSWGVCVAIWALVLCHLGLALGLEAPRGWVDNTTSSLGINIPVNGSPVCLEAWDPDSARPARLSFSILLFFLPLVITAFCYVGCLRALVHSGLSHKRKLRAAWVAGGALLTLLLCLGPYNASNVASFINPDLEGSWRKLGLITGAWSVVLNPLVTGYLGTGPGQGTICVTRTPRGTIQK
- PROTOCOL_TEXT: GPR40 calcium flux assay, HEK293 cells stably expressing rat GPR40
- CONDITION_INFO: transfected HEK293 cells stably expressing rat GPR40, Fluo 8 dye, read-out: rGPR40 Ca2+ Assay EC50
OBSERVATION_TYPE: EC50
Field: value (include unit after the number)

{"COMPOUND": "COc1ccc(F)c([C@H]2CC[C@H](COc3cncc(C(CC(=O)O)C4CC4)c3)CC2)c1 (some centres unmarked) [Cpd 21]", "MEASUREMENT_TARGET": "rat GPR40 (Rattus norvegicus)", "OBS_VALUE": "0.0353 µM"}
{"COMPOUND": "COc1cc([C@H]2CC[C@H](COc3cc([C@H](C4CC4)C(C)(F)C(=O)O)ccn3)CC2)c(F)cn1 (some centres unmarked) [Cpd 80]", "MEASUREMENT_TARGET": "rat GPR40 (Rattus norvegicus)", "OBS_VALUE": "0.22 µM"}
{"COMPOUND": "COc1cc([C@H]2CC[C@H](COc3cccc([C@@H](CC(=O)O)C4CC4)c3)CC2)c(F)cn1 [Cpd 9]", "MEASUREMENT_TARGET": "rat GPR40 (Rattus norvegicus)", "OBS_VALUE": "0.0028 µM"}
{"COMPOUND": "COc1ccc(F)c([C@H]2CC[C@@H](COc3cc([C@H](CC(=O)O)C4CC4)ccn3)CC2)c1 [Cpd 41]", "MEASUREMENT_TARGET": "rat GPR40 (Rattus norvegicus)", "OBS_VALUE": "0.043 µM"}

Note: attention shifts to another entry.
(Q) Fill in the blank: the reported EC50 of COc1ccc(F)c(C2CCC(OCc3cccc([C@H](C4CC4)C(C)(F)C(=O)O)c3)CC2)c1 (some centres unmarked) [Cpd 78] is ____.
(A) 0.0055 µM
